Origin of values: ChEMBL document CHEMBL3988442

biological target: Shiga toxin 2 (Escherichia coli O157:H7) (UniProt P09385+P09386); assay: E. coli 0.157:H7 Shiga Toxin SOP - stx2 screening assay; assay type: functional; set-up: scale not given: direction of the effect not stated beside the values; conditions: 30 µM
We begin with a simple list: items and their reported Percent Effect.
PROPERTY_LABEL: Percent Effect

• Cc1cc(F)c(S(=O)(=O)NCCCN2CCC(O)CC2)cc1F = -69.6%
• CNc1cncc(C2CCCN2C(=O)c2ccc3oc(=O)n(C)c3c2)n1 (stereo not drawn) = 3.86%
• CC(=O)Nc1ncc(S(=O)(=O)Nc2ccc(F)cc2)s1 = -10.2%
• C[S+]([O-])c1nncn1CC(=O)c1ccc2c(c1)CCO2 (stereo not drawn) = -38.1%
• O=C(N[C@@H]1CN(Cc2ccc3c(c2)OCO3)[C@@H]2CCCO[C@@H]21)C1CC1 = 9.3%
• c1csc(CN2CCOCC3(CCN(C4CCOCC4)C3)C2)n1 (stereo not drawn) = -7.95%
• N#Cc1c(C2CC2)cc(-c2ccc(O)cc2)nc1N = 15.9%
• Cc1cc(C)c2nc(CN3CCCC(c4cc[nH]n4)C3)cc(O)c2c1 (stereo not drawn) = 0.0646%
